Target: human insulin-like growth factor-I (IGF-I) (human, UniProt P05019 49-118)
Experiment: cell-based or functional assay
measurement.type: % Inhibition, mean (n = 3), IGF-I Proliferation Assay, NIH3T3/hIGF-IR cells (%)
# unit: % | format: bare number

Let me know recorded % Inhibition, mean (n = 3), IGF-I Proliferation Assay, NIH3T3/hIGF-IR cells for mAb 7.251.3 (antibody, V domains shown, Fully human XenoMouse hybridoma mAb, lambda light chain (V1-13/JL2); also called ATCC PTA-7422) VH: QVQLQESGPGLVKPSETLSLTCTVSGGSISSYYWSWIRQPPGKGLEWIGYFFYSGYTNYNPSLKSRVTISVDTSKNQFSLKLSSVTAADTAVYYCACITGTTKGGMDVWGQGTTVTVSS VL: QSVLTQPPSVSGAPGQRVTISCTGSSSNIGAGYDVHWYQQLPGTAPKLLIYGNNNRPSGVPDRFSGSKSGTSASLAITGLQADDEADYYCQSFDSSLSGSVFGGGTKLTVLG , thanks.
72.4
